target.entity: SYK kinase (Homo sapiens)
Exercise: for every item that follows, state its recorded Ki.

Reported Ki of CN1CCN(c2ccc(Nc3nc4ccccc4c4c([N+](=O)[O-])[nH]nc34)cc2)CC1 : 100 to 1000 nM

Record COc1ccc2nc(Nc3ccc4c(c3)N=C(NCCCO)CO4)c3n[nH]cc3c2c1 , field Ki: 10 to 100 nM

Summary for this compound, Brc1ccc2nc(Nc3cc[nH]n3)c3n[nH]cc3c2c1 : Ki is 100 to 1000 nM

The measured Ki associated with COc1ccc2c(c1)nc(Nc1ccc(N3CCN(C)CC3)cc1)c1n[nH]cc12 reads 10 to 100 nM

# Ki (compound: COc1cccc2c1nc(Nc1ccc3c(c1)NC(=O)CCC3)c1n[nH]cc12 ) is 10 to 100 nM

Entry under test: COc1ccc2nc(Nc3cccc(S(C)(=O)=O)c3)c3n[nH]cc3c2c1 . Its Ki was 100 to 1000 nM

Per the records, this compound ( CC(=O)N1CCN(c2ccc(Nc3nc4ccc(I)cc4c4cn[nH]c34)cc2)CC1 ) has Ki equal to 10 to 100 nM

Record COc1ccc2nc(Nc3ccc(CN4CCN(C)CC4)cc3)c3n[nH]cc3c2c1 , field Ki: 10 to 100 nM

The compound listed as COc1ccc2c(c1)nc(Nc1ccc(N3CCOCC3)cc1)c1n[nH]cc12 has a reported Ki of < 10 nM

Consider COc1ccc2nc(Nc3ccc(O)c(O)c3)c3n[nH]cc3c2c1 . Its measured Ki is 10 to 100 nM

The measured Ki associated with COc1ccc2nc(Nc3cccc(C)c3)c3n[nH]cc3c2c1 reads 100 to 1000 nM

For record CN1CCN(c2ccc(Nc3nc4ccc(F)cc4c4cn[nH]c34)cc2)CC1 the listed Ki is 10 to 100 nM

Entry COc1ccc2nc(Nc3ccc4c(c3)NC(=O)CCC4)c3n[nH]cc3c2c1 ; Ki = < 10 nM

So, O=C1COc2ccc(Nc3nc4ccccc4c4cn[nH]c34)cc2N1 ? Its Ki was 10 to 100 nM

// field: Ki; key: COc1cccc2nc(Nc3ccc4c(c3)NC(=O)CC4)c3[nH]ncc3c12 ; value = 10 to 100 nM

Recorded Ki (compound COc1ccc2nc(Nc3ccc(F)cc3)c3n[nH]cc3c2c1 ): 10 to 100 nM

// recorded Ki for COc1ccc2nc(Nc3ccc(N4CCN(C)CC4)cc3)c3n[nH]cc3c2c1 : 10 to 100 nM

// Ki value for c1ccc2c(c1)nc(Nc1ccc3c(c1)OCO3)c1n[nH]cc12 : 100 to 1000 nM

Input CCOc1ccc(Nc2nc3ccc(OC)cc3c3cn[nH]c23)cc1OC . Output Ki: 10 to 100 nM

Looking up COc1cc2nc(Nc3ccc(N(C)C)cc3)c3n[nH]cc3c2cc1OC , I found its Ki recorded as 10 to 100 nM

# compound COc1ccc2nc(Nc3ccc(N4CCN(C5CC5)CC4)cc3)c3n[nH]cc3c2c1 ; its Ki = 10 to 100 nM

Form field Ki, entry COc1ccc2nc(Nc3ccc(N4CCN(C(C)(C)C)CC4)cc3)c3n[nH]cc3c2c1 : 10 to 100 nM

Short answer for COc1ccc2nc(Nc3ccc4c(c3)OCCO4)c3n[nH]cc3c2c1 : Ki was 10 to 100 nM

For COc1ccc2nc(Nc3ccc(NC(=O)Nc4cccc(C)c4)cc3)c3n[nH]cc3c2c1 the compound record lists Ki as 10 to 100 nM

Note to self: Ki recorded for COc1cccc(Nc2nc3ccc(OC)cc3c3c[nH]nc23)c1 was 10 to 100 nM

# compound COc1ccc2nc(Nc3ccc4[nH]c(=O)oc(=O)c4c3)c3n[nH]cc3c2c1 ; its Ki = 100 to 1000 nM

Measured Ki, COc1ccc(Nc2nc3cc(OC)c(OC)cc3c3c[nH]nc23)cc1O : 10 to 100 nM

// COc1ccc2nc(Nc3ccc(N4CCS(=O)(=O)CC4)cc3)c3n[nH]cc3c2c1 : Ki value = < 10 nM

The recorded Ki for entry COc1ccc2nc(Nc3ccc(CN4CCCC4)cc3)c3n[nH]cc3c2c1 equals 10 to 100 nM

For this compound ( COc1ccc2nc(Nc3ccc(S(=O)(=O)N(C)C)cc3)c3n[nH]cc3c2c1 ), measured Ki is 10 to 100 nM

Record summary for COc1cc(Nc2nc3ccc(OC)cc3c3c[nH]nc23)cc(OC)c1 : reported Ki = 100 to 1000 nM

Just so you know, measured Ki for COc1cc(OC)c2nc(Nc3ccc(C(=O)N4CCN(C)CC4)cc3)c3n[nH]cc3c2c1 came out at 10 to 100 nM

For reference, reported Ki for Cn1ncc2ccc(Nc3nc4ccccc4c4c[nH]nc34)cc21 stands at 100 to 1000 nM

c1cc2c(cn1)nc(Nc1ccc3cn[nH]c3c1)c1n[nH]cc12 has a reported Ki of 10 to 100 nM

Input COc1ccc2nc(Nc3ccc(N(C)C4CCN(C)CC4)cc3)c3n[nH]cc3c2c1 . Output Ki: 10 to 100 nM

The measured values listed here are drawn from patent US9499535B2.
